Test: recombinant UMI read abundance after kanamycin selection (control-corrected) (log10(CPM+1)); higher = more efficient recombination; extreme values may be limits of the assay; sequences stand for … in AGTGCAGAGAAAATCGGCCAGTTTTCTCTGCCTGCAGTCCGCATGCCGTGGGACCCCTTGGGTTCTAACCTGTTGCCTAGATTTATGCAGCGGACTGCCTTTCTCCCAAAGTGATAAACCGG…AGGTTGGTTTCACT; site = the 11-nt donor;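 note: IS621 bridge recombinase in Escherichia coli cells against a fixed T5 target plasmid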
attribute_measured: recombinant UMI read abundance (log10)
Give only the figure.

# count of solved cases: 5
| residue_sequence | recombinant UMI read abundance (log10) |
| --- | --- |
| GGCCAACCATGGACCGGTTTTCCCGGTAATCCGTATTTGTT (site GGCCAACCTAA) | 0.00804 |
| TTGGCACCATGGACCGGTTTTCCCGGTAATCCGTATTTGAG (site TTGGCACCTCT) | 0.0325 |
| ACAGTAACATGGACCGGTTTTCCCGGTAATCCGTATTTGGA (site ACAGTAACTTC) | 2.19 |
| CACTAGCCATGGACCGGTTTTCCCGGTAATCCGTATTTGCC (site CACTAGCCTGG) | 0.665 |
| GGGGAACCATGGACCGGTTTTCCCGGTAATCCGTATTTGAT (site GGGGAACCTAT) | 0 |

Fill in the blank: the reported recombinant UMI read abundance (log10) of GGTCGAGCATGGACCGGTTTTCCCGGTAATCCGTATTTGCA (site GTTCGAGCTTG) is ____.
0.824

Same question for ACACATCCATGGACCGGTTTTCCCGGTAATCCGTATTTGCC (site ACACATCCTGG) please.
1.79

Same question for GCGGAGCCATGGACCGGTTTTCCCGGTAATCCGTATTTGGG (site GCGTAGCCTCC) please.
0.0221

Same question for CAAGCAGCATGGACCGGTTTTCCCGGTAATCCGTATTTGCG (site CAAGCAGCTTG) please.
1.68
